# MEASURED_ON: GlcNAc(b1-4)GlcNAc(b1-4)GlcNAc(b1-4)GlcNAc(b1-4)GlcNAc(b1-4)GlcNAc
# TEST_DETAILS: glycan array binding signal (z-score within array); higher = stronger binding
# STUDY_CONDITIONS: glycan notation: IUPAC condensed, linker removed
Many of the other results were omitted from the sample, so the strongest signals are more common in it than they were.
MEASURED_ATTRIBUTE: glycan array binding signal (z-score)
Numbers only.

HBHA-Rv (Mycobacterium tuberculosum), P0A5P6 (protein) MAENSNIDDIKAPLLAALGAADLALATVNELITNLRERAEETRTDTRSRVEESRARLTKLQEDLPEQLTELREKFTAEELRKAAEGYLEAATSRYNELVERGEAALERLRSQQSFEEVSARAEGYVDQAVELTQEALGTVASQTRAVGERAAKLVGIELPKKAAPAKKAAPAKKAAPAKKAAAKKAPAKKAAAKKVTQK : 3.44

[Q] Item under review: RSVL (Crotalus atrox), P21963 (protein) NNCPLDWLPMNGLCYKIFNQLKTWEDAEMFCRKYKPGCHLASFHRYGESLEIAEYISDYHKGQENVWIGLRDKKKDFSWEWTDRSCTDYLTWDKNQPDHYQNKEFCVELVSLTGYRLWNDQVCESKDAFLCQCKF . Reported glycan array binding signal (z-score)?
[A] -0.369
